Tested on: C57BL/6 mice, intracerebral ependymoblastoma, median survival T/C
assayText: NCI In Vivo Anticancer Drug Screen. Data for tumor model Ependymoblastoma (intracerebral) in C57BL/6 mice
protocolConditions: endpoint: median survival time; dose: 0.2 mg/kg/injection; schedule: Q01DX005 (ip); vehicle: saline; higher = longer survival
Toxic doses and inconclusive results are not listed.
experimentalReadout: T/C

compound	system	readoutValue
CCC1(O)CC2CN(CCc3c([nH]c4ccccc34)C(C(=O)OC)(c3cc4c(cc3OC)N(C)C3C(O)(C(=O)NCCO)C(O)C5(CC)C=CCN6CCC43C65)C2)C1 (configuration not stated)	C57BL/6 mice, intracerebral ependymoblastoma, median survival T/C	117 % of control
CCC1=C[C@H]2CN(CCc3c([nH]c4ccccc34)[C@@](C(=O)OC)(c3cc4c(cc3OC)N(C)[C@H]3[C@@](O)(C(=O)OC)[C@H](OC(C)=O)[C@]5(CC)C=CCN6CC[C@]43[C@@H]65)C2)C1	C57BL/6 mice, intracerebral ependymoblastoma, median survival T/C	110 % of control
CC[C@]12CN3CCc4c([nH]c5ccccc45)[C@@](C(=O)OC)(c4cc5c(cc4OC)N(C)[C@H]4[C@@](O)(C(=O)OC)[C@H](OC(C)=O)[C@]6(CC)C=CCN7CC[C@]54[C@@H]76)CC(C3)[C@H]1O2 (some centres not stated)	C57BL/6 mice, intracerebral ependymoblastoma, median survival T/C	93 % of control
CC[C@]1(O)C[C@H]2CN(CCc3c([nH]c4ccccc34)[C@@](C(=O)OC)(c3cc4c(cc3OC)N(C=O)[C@H]3[C@@](O)(C(=O)OC)[C@H](OC(C)=O)[C@]5(CC)C=CCN6CC[C@]43[C@@H]65)C2)C1	C57BL/6 mice, intracerebral ependymoblastoma, median survival T/C	105 % of control
COc1cc2c(c(OC)c1OC)-c1ccc(OC)c(=O)cc1[C@@H](NC(C)=O)CC2	C57BL/6 mice, intracerebral ependymoblastoma, median survival T/C	108 % of control
CCC1CC2CC(c3cc4c(cc3OC)N(C)C3C(O)(C(=O)OC)C(OC(C)=O)C5(CC)C=CCN6CCC43C65)c3[nH]c4ccccc4c3CCN(C1)C2 (configuration not stated)	C57BL/6 mice, intracerebral ependymoblastoma, median survival T/C	97 % of control
[N-]=[N+]=CC(=O)CCC(N)C(=O)O (configuration not stated)	C57BL/6 mice, intracerebral ependymoblastoma, median survival T/C	106 % of control
